The reported numbers originate from paper PMC4354951.

system: human NTPDase1 (Homo sapiens, UniProt P49961)
Sequence (P49961 whole entry): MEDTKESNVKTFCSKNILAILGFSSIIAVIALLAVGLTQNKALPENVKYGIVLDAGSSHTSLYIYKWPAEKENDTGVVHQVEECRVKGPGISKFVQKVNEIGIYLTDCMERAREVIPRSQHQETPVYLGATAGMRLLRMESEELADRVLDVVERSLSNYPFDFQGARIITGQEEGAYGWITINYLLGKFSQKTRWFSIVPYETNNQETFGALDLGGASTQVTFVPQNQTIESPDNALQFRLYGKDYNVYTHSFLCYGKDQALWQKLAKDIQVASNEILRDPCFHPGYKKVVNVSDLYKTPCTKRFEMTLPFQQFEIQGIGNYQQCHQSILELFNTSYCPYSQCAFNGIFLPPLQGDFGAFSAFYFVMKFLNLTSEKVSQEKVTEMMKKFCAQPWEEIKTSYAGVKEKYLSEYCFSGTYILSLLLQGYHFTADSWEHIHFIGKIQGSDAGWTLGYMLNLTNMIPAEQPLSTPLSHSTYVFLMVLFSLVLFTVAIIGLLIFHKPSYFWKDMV
protocol summary: Hydrolysis by NTPDase1
Format: biochemical
measurement conditions: 100 μM substrate; relative to ATP hydrolysis (100%)
measured parameter: Relative activity of NTPDase1 (%)
Numeric answer only, unit % assumed.

Fill in Relative activity of NTPDase1 for record [BH3-][P+](O)(OC[C@H]1O[C@@H](n2cnc3c(N)ncnc32)[C@H](O)[C@@H]1O)OP(=O)(O)CP(=O)(O)O (single isomer, unassigned) [3B]
0

Fill in Relative activity of NTPDase1 for record [BH3-][P+](O)(OC[C@H]1O[C@@H](n2cnc3c(N)ncnc32)[C@H](O)[C@@H]1O)OP(=O)(O)CP(=O)(O)O (single isomer, unassigned) [3A]
1.0

###

system: turkey P2Y1 receptor (Meleagris gallopavo, UniProt P49652)
Sequence (P49652 whole entry): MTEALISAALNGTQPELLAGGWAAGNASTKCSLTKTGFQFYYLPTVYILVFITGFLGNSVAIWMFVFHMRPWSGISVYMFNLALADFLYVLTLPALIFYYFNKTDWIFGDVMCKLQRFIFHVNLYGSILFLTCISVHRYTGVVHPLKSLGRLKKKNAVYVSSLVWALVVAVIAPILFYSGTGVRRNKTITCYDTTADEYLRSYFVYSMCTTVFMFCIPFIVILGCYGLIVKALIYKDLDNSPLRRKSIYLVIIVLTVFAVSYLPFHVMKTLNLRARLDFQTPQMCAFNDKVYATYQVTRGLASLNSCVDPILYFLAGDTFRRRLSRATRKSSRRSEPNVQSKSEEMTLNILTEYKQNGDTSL
measurement conditions: read-out: EC50 of analogue-induced increase in [Ca2+]i, P2Y1; 1321N1 cell transfectants
Record form. Attribute: EC50. Fill in for each entry.

Fill in EC50 for record [BH3-][P+](O)(OC[C@H]1O[C@@H](n2cnc3c(N)nc(SC)nc32)[C@H](O)[C@@H]1O)OP(=O)(O)CP(=O)(O)O (single isomer, unassigned) [4A]
> 100 µM

Fill in EC50 for record [BH3-][P+](O)(OC[C@H]1O[C@@H](n2cnc3c(N)ncnc32)[C@H](O)[C@@H]1O)OP(=O)(O)CP(=O)(O)O (single isomer, unassigned) [3B]
> 100 µM

Fill in EC50 for record [BH3-][P+](O)(OC[C@H]1O[C@@H](n2cnc3c(N)nc(SC)nc32)[C@H](O)[C@@H]1O)OP(=O)(O)CP(=O)(O)O (single isomer, unassigned) [4B]
17.2 µM

Fill in EC50 for record [BH3-][P+](O)(OC[C@H]1O[C@@H](n2cnc3c(N)ncnc32)[C@H](O)[C@@H]1O)OP(=O)(O)CP(=O)(O)O (single isomer, unassigned) [3A]
> 100 µM

###

system: rat P2Y6 receptor (Rattus norvegicus, UniProt Q63371)
Sequence (Q63371 whole entry): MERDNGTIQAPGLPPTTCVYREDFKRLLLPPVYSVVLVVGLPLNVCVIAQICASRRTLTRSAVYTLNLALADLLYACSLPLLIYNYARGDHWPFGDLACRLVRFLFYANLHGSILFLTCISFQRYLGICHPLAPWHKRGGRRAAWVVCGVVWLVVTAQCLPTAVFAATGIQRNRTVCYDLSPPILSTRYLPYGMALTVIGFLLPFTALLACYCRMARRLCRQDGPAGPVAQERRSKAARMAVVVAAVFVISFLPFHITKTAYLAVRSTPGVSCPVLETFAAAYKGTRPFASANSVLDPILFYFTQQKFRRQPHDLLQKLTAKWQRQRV
protocol summary: Increase in [Ca2+]i in 1321N1 astrocytoma cells expressing P2Y6 receptor
Assay type: cell-based
measured parameter: EC50

Tell me EC50 of `CSc1nc(N)c2ncn([C@@H]3O[C@H](COP(=O)(O)OP(=O)(O)CP(=O)(O)O)[C@@H](O)[C@H]3O)c2n1` when tested on rat P2Y6 receptor (Rattus norvegicus, UniProt Q63371).
> 100 µM

###

system: UniProt Q9Y5L3
Sequence (Q9Y5L3 whole entry): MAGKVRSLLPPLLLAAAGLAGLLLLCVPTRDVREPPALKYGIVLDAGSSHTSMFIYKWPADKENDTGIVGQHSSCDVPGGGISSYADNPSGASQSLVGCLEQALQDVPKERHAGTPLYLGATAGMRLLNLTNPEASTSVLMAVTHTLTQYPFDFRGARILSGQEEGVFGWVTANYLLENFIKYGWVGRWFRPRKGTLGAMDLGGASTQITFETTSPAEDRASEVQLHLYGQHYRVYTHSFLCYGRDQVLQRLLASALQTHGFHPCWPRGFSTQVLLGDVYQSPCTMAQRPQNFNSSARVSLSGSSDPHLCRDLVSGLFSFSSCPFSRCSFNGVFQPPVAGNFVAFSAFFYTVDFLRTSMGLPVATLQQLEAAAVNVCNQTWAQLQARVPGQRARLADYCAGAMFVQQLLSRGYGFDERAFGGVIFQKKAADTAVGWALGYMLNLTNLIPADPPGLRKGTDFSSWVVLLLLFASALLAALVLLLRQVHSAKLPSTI
protocol summary: Hydrolysis by NTPDase2
Type: biochemical
measurement conditions: 100 μM substrate; relative to ATP hydrolysis (100%)
Record form. Attribute: Relative activity of NTPDase2. Fill in for each entry.
Numeric answer only, unit % assumed.

Fill in Relative activity of NTPDase2 for record [BH3-][P+](O)(OC[C@H]1O[C@@H](n2cnc3c(N)nc(SC)nc32)[C@H](O)[C@@H]1O)OP(=O)(O)CP(=O)(O)O (single isomer, unassigned) [4B]
1.0

Fill in Relative activity of NTPDase2 for record [BH3-][P+](O)(OC[C@H]1O[C@@H](n2cnc3c(N)ncnc32)[C@H](O)[C@@H]1O)OP(=O)(O)CP(=O)(O)O (single isomer, unassigned) [3B]
0

Fill in Relative activity of NTPDase2 for record [BH3-][P+](O)(OC[C@H]1O[C@@H](n2cnc3c(N)nc(SC)nc32)[C@H](O)[C@@H]1O)OP(=O)(O)CP(=O)(O)O (single isomer, unassigned) [4A]
1.0

Fill in Relative activity of NTPDase2 for record [BH3-][P+](O)(OC[C@H]1O[C@@H](n2cnc3c(N)ncnc32)[C@H](O)[C@@H]1O)OP(=O)(O)CP(=O)(O)O (single isomer, unassigned) [3A]
1.0

###

system: UniProtKB P41231
Sequence (P41231 whole entry): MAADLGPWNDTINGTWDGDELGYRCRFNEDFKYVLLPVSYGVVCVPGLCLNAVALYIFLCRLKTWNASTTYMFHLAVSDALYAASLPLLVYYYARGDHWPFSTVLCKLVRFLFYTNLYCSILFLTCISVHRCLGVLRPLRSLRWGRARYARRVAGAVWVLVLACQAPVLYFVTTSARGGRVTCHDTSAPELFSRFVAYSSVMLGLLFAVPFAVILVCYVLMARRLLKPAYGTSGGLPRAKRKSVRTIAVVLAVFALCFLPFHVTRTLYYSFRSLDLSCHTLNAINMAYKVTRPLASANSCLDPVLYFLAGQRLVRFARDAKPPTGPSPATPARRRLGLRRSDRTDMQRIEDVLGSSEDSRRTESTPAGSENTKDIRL
protocol summary: Increase in [Ca2+]i in 1321N1 astrocytoma cells expressing P2Y2 receptor
Type: cell-based
measured parameter: EC50

Fill in EC50 for record CSc1nc(N)c2ncn([C@@H]3O[C@H](COP(=O)(O)OP(=O)(O)CP(=O)(O)O)[C@@H](O)[C@H]3O)c2n1 [compound 2]
> 100 µM

###

system: human NTPDase3 (Homo sapiens, UniProt O75355)
Sequence (O75355 whole entry): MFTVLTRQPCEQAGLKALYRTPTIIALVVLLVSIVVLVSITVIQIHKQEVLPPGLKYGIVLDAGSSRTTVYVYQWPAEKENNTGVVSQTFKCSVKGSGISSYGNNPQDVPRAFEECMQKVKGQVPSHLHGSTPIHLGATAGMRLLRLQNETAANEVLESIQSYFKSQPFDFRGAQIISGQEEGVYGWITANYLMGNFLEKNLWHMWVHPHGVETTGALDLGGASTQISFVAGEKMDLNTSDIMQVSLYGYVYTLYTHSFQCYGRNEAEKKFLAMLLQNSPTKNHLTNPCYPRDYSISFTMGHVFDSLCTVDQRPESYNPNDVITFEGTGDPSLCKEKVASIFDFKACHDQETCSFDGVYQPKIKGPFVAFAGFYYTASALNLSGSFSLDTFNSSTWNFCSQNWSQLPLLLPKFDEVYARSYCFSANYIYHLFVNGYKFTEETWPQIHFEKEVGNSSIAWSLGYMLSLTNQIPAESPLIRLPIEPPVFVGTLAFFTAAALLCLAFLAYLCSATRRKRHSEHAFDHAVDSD
protocol summary: Hydrolysis by NTPDase3
Assay type: biochemical
measurement conditions: 100 μM substrate; relative to ATP hydrolysis (100%)
Record form. Attribute: Relative activity of NTPDase3. Fill in for each entry.
Numeric answer only, unit % assumed.

Fill in Relative activity of NTPDase3 for record [BH3-][P+](O)(OC[C@H]1O[C@@H](n2cnc3c(N)ncnc32)[C@H](O)[C@@H]1O)OP(=O)(O)CP(=O)(O)O (single isomer, unassigned) [3B]
6.0

Fill in Relative activity of NTPDase3 for record [BH3-][P+](O)(OC[C@H]1O[C@@H](n2cnc3c(N)nc(SC)nc32)[C@H](O)[C@@H]1O)OP(=O)(O)CP(=O)(O)O (single isomer, unassigned) [4B]
2.0

Fill in Relative activity of NTPDase3 for record [BH3-][P+](O)(OC[C@H]1O[C@@H](n2cnc3c(N)nc(SC)nc32)[C@H](O)[C@@H]1O)OP(=O)(O)CP(=O)(O)O (single isomer, unassigned) [4A]
2.0

Fill in Relative activity of NTPDase3 for record [BH3-][P+](O)(OC[C@H]1O[C@@H](n2cnc3c(N)ncnc32)[C@H](O)[C@@H]1O)OP(=O)(O)CP(=O)(O)O (single isomer, unassigned) [3A]
0

###

system: UniProt P51582
Sequence (P51582 whole entry): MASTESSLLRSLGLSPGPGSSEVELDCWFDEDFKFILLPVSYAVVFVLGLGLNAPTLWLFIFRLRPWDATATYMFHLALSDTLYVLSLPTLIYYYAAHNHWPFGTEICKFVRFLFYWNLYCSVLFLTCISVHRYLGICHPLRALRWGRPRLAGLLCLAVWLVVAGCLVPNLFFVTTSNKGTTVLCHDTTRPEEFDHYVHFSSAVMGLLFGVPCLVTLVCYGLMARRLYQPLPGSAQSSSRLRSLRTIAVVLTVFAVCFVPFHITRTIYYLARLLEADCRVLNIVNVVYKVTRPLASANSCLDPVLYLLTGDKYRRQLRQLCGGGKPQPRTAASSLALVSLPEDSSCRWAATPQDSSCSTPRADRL
protocol summary: Increase in [Ca2+]i in 1321N1 astrocytoma cells expressing P2Y4 receptor
Assay type: cell-based
measured parameter: EC50

Fill in EC50 for record CSc1nc(N)c2ncn([C@@H]3O[C@H](COP(=O)(O)OP(=O)(O)CP(=O)(O)O)[C@@H](O)[C@H]3O)c2n1 [compound 2]
> 100 µM

###

system: human NTPDase8 (Homo sapiens)
Sequence (Q5MY95 1-495): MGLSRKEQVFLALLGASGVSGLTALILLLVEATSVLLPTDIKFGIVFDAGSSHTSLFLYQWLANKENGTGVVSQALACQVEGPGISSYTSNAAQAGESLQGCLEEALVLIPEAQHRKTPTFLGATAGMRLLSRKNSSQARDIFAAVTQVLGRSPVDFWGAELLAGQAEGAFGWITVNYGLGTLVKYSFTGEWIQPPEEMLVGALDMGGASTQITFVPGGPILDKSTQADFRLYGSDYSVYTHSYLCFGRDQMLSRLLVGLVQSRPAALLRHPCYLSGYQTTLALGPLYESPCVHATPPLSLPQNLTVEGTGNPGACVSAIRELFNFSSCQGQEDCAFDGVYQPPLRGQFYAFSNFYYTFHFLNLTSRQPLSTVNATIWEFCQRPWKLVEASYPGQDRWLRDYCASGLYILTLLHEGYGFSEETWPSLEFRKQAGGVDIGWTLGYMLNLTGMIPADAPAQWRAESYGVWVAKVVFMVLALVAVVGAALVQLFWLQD
protocol summary: Hydrolysis by NTPDase8
Type: biochemical
measurement conditions: 100 μM substrate; relative to ATP hydrolysis (100%)
measured parameter: Relative activity of NTPDase8 (%)
Numeric answer only, unit % assumed.

Tell me Relative activity of NTPDase8 of [BH3-][P+](O)(OC[C@H]1O[C@@H](n2cnc3c(N)nc(SC)nc32)[C@H](O)[C@@H]1O)OP(=O)(O)CP(=O)(O)O (single isomer, unassigned) [4B] when tested on human NTPDase8 (Homo sapiens).
3.0

Tell me Relative activity of NTPDase8 of [BH3-][P+](O)(OC[C@H]1O[C@@H](n2cnc3c(N)nc(SC)nc32)[C@H](O)[C@@H]1O)OP(=O)(O)CP(=O)(O)O (single isomer, unassigned) [4A] when tested on human NTPDase8 (Homo sapiens).
4.0

Tell me Relative activity of NTPDase8 of [BH3-][P+](O)(OC[C@H]1O[C@@H](n2cnc3c(N)ncnc32)[C@H](O)[C@@H]1O)OP(=O)(O)CP(=O)(O)O (single isomer, unassigned) [3A] when tested on human NTPDase8 (Homo sapiens).
2.0

###

system: human NPP1 (Homo sapiens, UniProt P22413)
Sequence (P22413 whole entry): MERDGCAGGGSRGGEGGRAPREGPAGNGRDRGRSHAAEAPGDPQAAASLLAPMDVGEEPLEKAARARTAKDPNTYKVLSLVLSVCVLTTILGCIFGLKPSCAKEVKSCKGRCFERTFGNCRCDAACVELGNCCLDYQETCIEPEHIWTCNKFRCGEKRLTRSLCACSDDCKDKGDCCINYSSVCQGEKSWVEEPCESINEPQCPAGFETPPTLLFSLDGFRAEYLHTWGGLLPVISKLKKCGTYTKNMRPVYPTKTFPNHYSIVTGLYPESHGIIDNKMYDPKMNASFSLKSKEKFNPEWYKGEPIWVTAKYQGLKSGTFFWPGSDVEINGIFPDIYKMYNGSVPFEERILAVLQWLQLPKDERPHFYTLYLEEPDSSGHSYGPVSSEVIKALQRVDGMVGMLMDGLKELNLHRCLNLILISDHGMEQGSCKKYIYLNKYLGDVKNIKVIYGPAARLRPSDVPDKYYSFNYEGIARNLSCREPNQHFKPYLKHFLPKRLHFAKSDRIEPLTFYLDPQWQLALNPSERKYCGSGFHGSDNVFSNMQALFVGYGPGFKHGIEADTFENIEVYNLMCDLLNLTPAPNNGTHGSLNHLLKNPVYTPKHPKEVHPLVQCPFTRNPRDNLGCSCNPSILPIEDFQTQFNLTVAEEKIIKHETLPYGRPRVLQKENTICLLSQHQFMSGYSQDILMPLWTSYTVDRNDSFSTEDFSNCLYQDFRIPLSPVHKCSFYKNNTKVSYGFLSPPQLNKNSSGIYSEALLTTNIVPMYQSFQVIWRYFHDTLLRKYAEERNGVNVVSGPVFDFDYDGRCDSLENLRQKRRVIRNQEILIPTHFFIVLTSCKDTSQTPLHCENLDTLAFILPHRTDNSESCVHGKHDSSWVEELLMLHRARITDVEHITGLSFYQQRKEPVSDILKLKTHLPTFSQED
protocol summary: Hydrolysis by NPP1
Assay type: biochemical
measurement conditions: 100 μM substrate; relative to pnp-TMP hydrolysis (100%)
measured parameter: Relative activity of NPP1
Note to self: number, then unit, no commentary.

Tell me Relative activity of NPP1 of [BH3-][P+](O)(OC[C@H]1O[C@@H](n2cnc3c(N)ncnc32)[C@H](O)[C@@H]1O)OP(=O)(O)CP(=O)(O)O (single isomer, unassigned) [3A] when tested on human NPP1 (Homo sapiens, UniProt P22413).
0%

Tell me Relative activity of NPP1 of [BH3-][P+](O)(OC[C@H]1O[C@@H](n2cnc3c(N)nc(SC)nc32)[C@H](O)[C@@H]1O)OP(=O)(O)CP(=O)(O)O (single isomer, unassigned) [4A] when tested on human NPP1 (Homo sapiens, UniProt P22413).
0%

Tell me Relative activity of NPP1 of Cc1cn([C@H]2C[C@H](O)[C@@H](COP(=O)(O)Oc3ccc([N+](=O)[O-])cc3)O2)c(=O)[nH]c1=O [pnp-TMP, p-nitrophenylthymidine-5′-monophosphate, reference compound] when tested on human NPP1 (Homo sapiens, UniProt P22413).
100%

Tell me Relative activity of NPP1 of [BH3-][P+](O)(OC[C@H]1O[C@@H](n2cnc3c(N)ncnc32)[C@H](O)[C@@H]1O)OP(=O)(O)CP(=O)(O)O (single isomer, unassigned) [3B] when tested on human NPP1 (Homo sapiens, UniProt P22413).
4.0 ± 0.12%
